Reference for the values: the supplement of paper PMC10724198

Tested on: Saccharomyces cerevisiae
method_summary: protein stability index of tFT-peptide fusion (C-terminal peptide) (PSI (0-1 scale)); higher = more stable (slower turnover)
condition_description: genetic background: das1 deletion; temperature: 37 C
For each of the sequences below, state its protein stability index.
# output: bare number, no unit

IN: Please provide the recorded protein stability index for "ELDVRPMVFLVA" , tested on Saccharomyces cerevisiae.
OUT: 0.494

IN: Please provide the recorded protein stability index for "GLPRRFLLLSVV" , tested on Saccharomyces cerevisiae.
OUT: 0.508

IN: Please provide the recorded protein stability index for "CGSFWVNVLCAV" , tested on Saccharomyces cerevisiae.
OUT: 0.497

IN: Please provide the recorded protein stability index for "QVLISLYVHGYF" , tested on Saccharomyces cerevisiae.
OUT: 0.51

* * *

Test system: Saccharomyces cerevisiae;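 note: PSI is a weighted mean of sequencing reads over stability bins, variants kept only with over 10 reads, mCherry proximal and sfGFP distal, peptide attached via GGGS linker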
method_summary: protein stability index of tFT-peptide fusion (C-terminal peptide) (PSI (0-1 scale)); higher = more stable (slower turnover)
condition_description: genetic background: doa10 deletion; temperature: 30 C
value_type: protein stability index

IN: Please look up its protein stability index: "WILIGVRFSCFG"
OUT: 0.159

IN: Please look up its protein stability index: "ICQFFFFALLSF"
OUT: 0.238

IN: Please look up its protein stability index: "PHVSALSRDPES"
OUT: 0.65

IN: Please look up its protein stability index: "RLRHPPRLSTLC"
OUT: 0.306

IN: Please look up its protein stability index: "QCSPGLPHAQGL"
OUT: 0.657

IN: Please look up its protein stability index: "RVLCLVSSLTLF"
OUT: 0.352

IN: Please look up its protein stability index: "SLRPFFPPLPRP"
OUT: 0.723

IN: Please look up its protein stability index: "GLPRRFLLLSVV"
OUT: 0.11

IN: Please look up its protein stability index: "LNTVALIRIVVS"
OUT: 0.125

IN: Please look up its protein stability index: "RLVPFMAVRVLF"
OUT: 0.413

IN: Please look up its protein stability index: "QHRAIKIEIKIN"
OUT: 0.0613

IN: Please look up its protein stability index: "FLSLVIVLRWFL"
OUT: 0.298

IN: Please look up its protein stability index: "SFFYFVFYYLSF"
OUT: 0.253

IN: Please look up its protein stability index: "SLARLRRICFNT"
OUT: 0.254

IN: Please look up its protein stability index: "ESRDRRVGIANW"
OUT: 0.648

IN: Please look up its protein stability index: "SFVLLSSFLVFV"
OUT: 0.275

IN: Please look up its protein stability index: "VLFFCLVIYVGV"
OUT: 0.141

IN: Please look up its protein stability index: "FSFVVRMFFRIL"
OUT: 0.0869

IN: Please look up its protein stability index: "ILLICLQFFNLF"
OUT: 0.35

IN: Please look up its protein stability index: "AVCVVVMAVFVG"
OUT: 0.293

IN: Please look up its protein stability index: "TLKRCFRWCRTT"
OUT: 0.105

IN: Please look up its protein stability index: "LFFVFCLFFIYF"
OUT: 0.322

IN: Please look up its protein stability index: "GFLGMFFFWFAL"
OUT: 0.461

IN: Please look up its protein stability index: "PPRDPGGLFTPF"
OUT: 0.703

IN: Please look up its protein stability index: "WLPFFPLSLRGV"
OUT: 0.63

IN: Please look up its protein stability index: "LFTRWSILFKLF"
OUT: 0.0889

IN: Please look up its protein stability index: "IRACGCSFLWVC"
OUT: 0.111

IN: Please look up its protein stability index: "GGLLSQLLRSIG"
OUT: 0.234

IN: Please look up its protein stability index: "RTWFTYMSIPVW"
OUT: 0.189

IN: Please look up its protein stability index: "VLLGYPRILSLF"
OUT: 0.165

IN: Please look up its protein stability index: "FLCIFFFFLISF"
OUT: 0.346

IN: Please look up its protein stability index: "CASVCCFFAWIV"
OUT: 0.299

IN: Please look up its protein stability index: "RLSTPFTVNHFI"
OUT: 0.155

IN: Please look up its protein stability index: "PFRSAYYLLFLL"
OUT: 0.122

IN: Please look up its protein stability index: "LRPTFLLLFRPL"
OUT: 0.618
